- Test system: A498
- Experiment Description: NCI tumour cell line growth inhibition, 48 h
Active and inactive are the calls of the source. Rule as the data show it: active = GI50 up to about 1.1 µM and inactive = higher. Peptide text beside a SMILES is read from it. * marks the point of attachment. Boc = CC(C)(C)OC(=O)*
Measure Name: GI50

>  <Compound>
CCOC(=O)/C(C#N)=N\Nc1ccc(-n2c(C)nc3ccc(Br)cc3c2=O)cc1

>  <Result>
> 100 µM (inactive)

$$$$
>  <Compound>
CC(C)(C)OC(=O)NCCCCC(N)C(N)=O (configuration not stated)

>  <Result>
> 100 µM (inactive)

$$$$
>  <Compound>
CS(=O)(=O)OCCN(CCOS(C)(=O)=O)c1ccc(/C=N/c2cccc(Cl)c2)cc1

>  <Result>
5.38 µM (inactive)

$$$$

Missing value: GI50, A498, entry Cc1cc2c(cc1Cl)Sc1nnc(Nc3ccccc3)n1S2(=O)=O . Fill in?
12.7 µM (inactive)

Missing value: GI50, A498, entry O=C1OC(C2Cc3cc4c(cc3C2=O)CCC4)c2ccccc21 (configuration not stated) . Fill in?
25.9 µM (inactive)

Missing value: GI50, A498, entry COC(=O)C(Cc1ccccc1)NC(=O)C(CS)NC(=O)OC(C)(C)C (stereo not drawn) (Boc-Cys-Phe-OMe; configuration not given here) . Fill in?
> 100 µM (inactive)

Missing value: GI50, A498, entry CCOC(=O)C(NC(=O)CC(C)C)(NC(C)C)C(F)(F)F (configuration not stated) . Fill in?
> 100 µM (inactive)
